# tested.on: T1, cynomolgus folate receptor alpha, recombinant (cynomolgus, UniProt A0A2K5U044 25-233)
# T1 construct: also called cyFOLR1; cynomolgus FRα
# assay.explanation: BLI, purified VHH
Give measured koff for each item. Keep answers brief.
Number only, in s⁻¹; omit the unit.

Task: I am curious: what koff value has been reported for P01500042: P01500001(G28T, S30I)-FLAG3-HIS6 (VHH, also called P0150042) VHH: EVQLVESGGGLVQPGGSLRLSCAASGSTFIGMIMGWYRQAPGKQRELVATVTSHGTTNYADSVKGRFTISRDNAKNTVYLQMNSLRPEDTAVYYCNAHFPGIYWGKGTLVTVSS ?
Result: 0.00038

Task: I am curious: what koff value has been reported for P01500043: P01500001(G28T, I33L, D72E)-FLAG3-HIS6 (VHH, also called P0150043) VHH: EVQLVESGGGLVQPGGSLRLSCAASGSTFSGMLMGWYRQAPGKQRELVATVTSHGTTNYADSVKGRFTISRENAKNTVYLQMNSLRPEDTAVYYCNAHFPGIYWGKGTLVTVSS ?
Result: 0.000428

Where these numbers come from: patent US20250304677A1
